Assay: NCI Yeast Anticancer Drug Screen. Data for the wt1 strain (AID 149);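 note: 0% = growth of vehicle-treated wt1 cultures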
Conditions: S. cerevisiae wt1 strain (SPY 50644) growth inhibition; at 1.2 µM; active compounds read high
Experimental: Growth inhibition of yeast strains with defined genetic alterations is measured as a screen for potential anti-cancer activity. Selected strains with alterations in DNA damage repair or cell cycle control were exposed to compounds and growth inhibition was measured relative to vehicle treated controls. The strain used in this assay is wt1
About 79,000 compounds went through this panel and 15% of them were active in at least one assay; those are over-represented in the sample as a whole.
Overview of recorded growth inhibition for various compounds
Respond with the bare value in %.

Guide cases for growth inhibition, answers given:
1. Oc1ccc2nc3ccccc3nc2c1: 1
2. COC(=O)C1=C(C(=O)OC)C2OC1c1cc3ccccc3cc12: 7
3. CC1=C(CO)C2=C(C)C3(CC3)[C@@](C)(O)C(=O)C2=C1: 0
4. BrCC[N+]12CC[N+](CCBr)(CC1)C2: 1
5. CCCN(CCC)c1c([N+](=O)[O-])cc(S(N)(=O)=O)cc1[N+](=O)[O-]: 10

[in] Specify measured growth inhibition for CC[C@]1(O)CC(OC2CC(N(C)C)C(O)C(C)O2)c2c(cc3c(c2O)C(=O)c2c(O)cccc2C3=O)[C@@H]1C(=O)OC (stereo not given in full) .
[out] -2

[in] Quickly give me recorded growth inhibition for CC12CCC(C1)C(C)(C)C2OC(=O)c1ccccc1N (stereo not given)
[out] -1

[in] For the compound O=[N+]([O-])c1ccc(C=Cc2ccccc2)cc1.[C-]#[O+].[C-]#[O+].[C-]#[O+].[Cr] , report growth inhibition.
[out] -2

[in] Give the reported growth inhibition for this compound. O=[N+]([O-])O.[NH-]C1CCCCC1[NH-].[NH-]C1CCCCC1[NH-].[NH-]C1CCCCC1[NH-].[OH-].[OH-].[OH-].[Pt+4].[Pt+4].[Pt+4] (stereo not given)
[out] -15

[in] Answer with reported growth inhibition of CC1CCC2(NC1)OC1CC3C4CCC5CC(OC6OC(CO)C(OC7OC(CO)C(O)C(OC8OCC(O)C(O)C8O)C7OC7OC(CO)C(O)C(O)C7O)C(O)C6O)CCC5(C)C4CCC3(C)C1C2C (stereo not given)
[out] -6

* * *

test: NCI Yeast Anticancer Drug Screen. Data for the rad50 strain (AID 155);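 note: 0% = growth of vehicle-only cultures of the same strain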; settings: S. cerevisiae rad50 strain growth inhibition; at 5.0 µM (retest, dose inferred, filed as 0.5); active compounds read high
Compounds without any hit were thinned out: in the full panel of roughly 79,000, 15% have a hit.
Could you label it Condition met if measured growth inhibition is 40% or higher, and Condition not met otherwise?

[in] Assess whether reported growth inhibition for CC(=O)OC1CCC2(C)C(CCC3C4=CCC(C5=CC(=O)OC5)C4(C)CCC32)C1 (configuration not stated) sits at 40% or higher.
[out] Condition not met

* * *

assay: NCI Yeast Anticancer Drug Screen. Data for the CLN2oe strain (AID 163);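 note: 0% = growth of vehicle-only control cultures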; details: S. cerevisiae CLN2oe strain, at 100.0 µM
About 79,000 compounds went through this panel and 15% of them were active in at least one assay; those are over-represented in the sample as a whole. Active and inactive are the calls of the source. Rule as the data show it: active = growth inhibition above about 70%; inactive = the rest.
Choose one outcome from this list and give only that: active, inactive

1) C[N+]1(CCCl)CC[N+](C)(CCCl)CC1 (stereo unspecified): active

[in] Outcome? c1cc2c(cc1C1OC[C@H]3[C@@H](c4ccc5c(c4)OCO5)OC[C@@H]13)OCO2 (stereo partly specified)
[out] inactive
